Provide the recorded Percent Effect for the entries that follow.
target system: AMP-activated protein kinase, AMPK (Homo sapiens) (UniProt P54646+O43741+P54619+Q9UGJ0+Q9Y478+Q13131+Q9UGI9)
assay protocol: AMP-dependent Kinase enzyme assay. An in vitro enzyme assay that detects ADP turnover that is directly proportional to AMPK activity. This uses naive AMPK that is activated during the assay with MK-8722
Format: functional
Design: scale not given: direction of the effect not stated beside the values
condition info: 30 µM
Express your answer in %, writing the number without its unit.

Percent Effect lookup needed for COc1ccc(CCN2CCC(N3CCN(C)C3=O)CC2)cc1 , thanks.
0.0857

Percent Effect lookup needed for O=C(Nc1nccs1)N1CCCC(N2CCNC2=O)C1 (configuration not stated) , thanks.
7.04

Percent Effect lookup needed for OC(CN1CCN(Cc2nnc(C3CC3)o2)CC1)c1ccccc1 (configuration not stated) , thanks.
-8.23

Percent Effect lookup needed for Cc1ccc(CNCc2nnc3n2CCCC3C(F)(F)F)s1 (configuration not stated) , thanks.
-7.92

Percent Effect lookup needed for O=C(c1ccsc1)N1CCCC(c2cc(C(F)(F)F)[nH]n2)C1 (configuration not stated) , thanks.
10.2

Percent Effect lookup needed for CC(C)n1ncc2c1NC(=O)CC21C(=O)Nc2c(Cl)cc(Cl)cc21 (configuration not stated) , thanks.
3.17

Percent Effect lookup needed for Cc1nc(C2CCCN(C(=O)c3scnc3C)C2)no1 (configuration not stated) , thanks.
-13.5

Percent Effect lookup needed for CCNC(=O)c1ccoc1CN1c2ccccc2CC1C (configuration not stated) , thanks.
7.91

Percent Effect lookup needed for CSc1nccn1-c1cccc(C(=O)NCCCN2CCOCC2)c1 , thanks.
0.67

Percent Effect lookup needed for CCc1nc(C2CCCN(C(=O)CCn3ccccc3=O)C2)no1 (configuration not stated) , thanks.
-7.52

Percent Effect lookup needed for Cc1cccc(C(=O)N(C)Cc2cc(Br)cs2)n1 , thanks.
7.43

Percent Effect lookup needed for CCN1CC2(CC1=O)CN(C(=O)c1ccco1)CCN(C(=O)N(C)C)C2 (configuration not stated) , thanks.
-1.36

----------
target system: Chromo domain-containing protein 1 (Saccharomyces cerevisiae (strain ATCC 204508 / S288c) (Baker's yeast))
assay protocol: ScCHD-1 Enzyme Inhibition Assay; note: in the data most compounds retested in dose-response had high values
Format: functional
Parameters: scale not given: direction of the effect not stated beside the values
condition info: 30 µM
Provide the recorded Percent Effect for the entries that follow.
Express your answer in %, writing the number without its unit.

Percent Effect lookup needed for c1ccc(COC2CCN(c3cncc(-n4cccn4)n3)CC2)cc1 , thanks.
-2.69

Percent Effect lookup needed for CCc1nnc2n1CCN(Cc1csc(-c3cnn(C)c3)n1)C2 , thanks.
0.402

Percent Effect lookup needed for CC(C)Cc1noc(CN2CCN(C(=O)c3cccc(F)c3)CC2)n1 , thanks.
6.05

Percent Effect lookup needed for Cc1cc(C(=O)N2CCCC2Cn2nc(C)cc2C)on1 (stereo unspecified) , thanks.
-8.04

Percent Effect lookup needed for CCc1ccc(CN2C[C@@H]3OCCN(c4ccnc(N(C)C)n4)[C@@H]3C2)o1 , thanks.
-4.54

Percent Effect lookup needed for CC(C)OCCCNC(=O)CN1CCC(N2CCN(C)C2=O)CC1 , thanks.
-6.17

Percent Effect lookup needed for O=C(CCc1cccs1)N1CCC(N2CCNC2=O)CC1 , thanks.
-19.5

Percent Effect lookup needed for COCCn1nc(C(=O)N(C)Cc2cnn(C)c2)ccc1=O , thanks.
-9.82

Percent Effect lookup needed for COc1ccc(-c2nccnc2C2CCN(C(C)=O)CC2)cc1 , thanks.
-9.8

Percent Effect lookup needed for COc1ccc(C2=C(C)C(N3CCc4ccccc43)=NS2(=O)=O)cc1 , thanks.
-11.2

Percent Effect lookup needed for Cc1ccc(C)c(NC(=O)Nc2c[nH]c(=O)[nH]c2=O)c1 , thanks.
-8.57
